# assayed target: T1, cTnI quality control product recombinant protein (human, UniProt P19429 1-210, limits assumed)
# T1 construct: the assay paragraphs only say cTnI; also called cardiac troponin I; cTnI antigen
# T1 sequence (P19429 whole entry): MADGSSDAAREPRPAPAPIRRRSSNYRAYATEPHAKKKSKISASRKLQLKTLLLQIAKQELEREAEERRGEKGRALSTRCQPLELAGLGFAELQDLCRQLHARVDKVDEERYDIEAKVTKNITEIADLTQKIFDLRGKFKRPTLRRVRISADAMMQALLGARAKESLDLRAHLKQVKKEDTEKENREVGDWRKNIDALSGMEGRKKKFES
# test protocol: capture ELISA, antibody 111.111 ng/ml, cTnI 0.15 ug/ml
// reported OD 450 nm per item
Hi! Could you send only the number? It should be in OD, unit omitted.

Some solved cases for reference:
Anti-cTnI 7B9 monoclonal antibody (recombinant, Sample 1) (antibody, mouse IgG1, kappa, V domains shown, Recombinant mouse antibody expressed in CHO cells; also called WT; Anti-cTnI 7B9 antibody) VH: QVQLQQSGTELAKPGASVKFSCKASDYTFSTYWMYWIKQRPGQGLEWIGYLNPSSGHTEYNQRFKDKATLTADKSSSTAYMQLNSLTSEDSAVYYCARKYFGPFAMDYWGQGTSVTVSS VL: EIFLTQSPAIMSASPGEKVTMTCSASTTVSYAHWYQQKSGTSPKRWLYDSSKIASGIPVRFSGSGSGTSYSLTISSMEAEDAATYYCQNWSTQPYTFGGGTKLEIKR	1.88
Mutation 2 (antibody, V domains shown, other CDR sites as WT) VH: QVQLQQSGTELAKPGASVKFSCKASLYTFSTYWMYWIKQRPGQGLEWIGYLNPSSGHTEYNQRFKDKATLTADKSSSTAYMQLNSLTSEDSAVYYCARKYFGPFIMDYWGQGTSVTVSS VL: EIFLTQSPAIMSASPGEKVTMTCSASTTVSYAHWYQQKSGTSPKRWLYDTSKIASGIPVRFSGSGSGTSYSLTISSMEAEDAATYYCQVWSTQPYTFGGGTKLEIKR	2.17

// moving on: another record for OD 450 nm
Give its OD 450 nm value. Item: Mutation 3 (antibody, V domains shown, other CDR sites as WT) VH: QVQLQQSGTELAKPGASVKFSCKASIYTFSTYWMYWIKQRPGQGLEWIGYLNPSSGHTGYNQRFKDKATLTADKSSSTAYMQLNSLTSEDSAVYYCARKYFGPFVMDYWGQGTSVTVSS VL: EIFLTQSPAIMSASPGEKVTMTCSASTTVSYIHWYQQKSGTSPKRWLYDTSKIASGIPVRFSGSGSGTSYSLTISSMEAEDAATYYCQRWSTQPYTFGGGTKLEIKR 2
